Experiment: logP determination by HPLC (EEC-Directive 79/831 Annex V. A8)
Format: physicochemical
Details: gradient method, acetonitrile/0.1% aqueous phosphoric acid
Checkbox rule: logP lower than 5 = criterion met; logP not lower than 5 = criterion not met.

The examples below pair each entry with its known result.
CON=C(C(=O)N(C)SC(F)(Cl)Cl)c1ccccc1Oc1ncnc(Oc2ccc(Cl)cc2Cl)c1F [Example 102] | criterion not met
CON=C(C(=O)N(C)SC(F)(Cl)Cl)c1ccccc1Oc1ncnc(Oc2ccc(C#N)cc2)c1F [Example 107] | criterion met
CCOC(=O)N(C)C(=O)C(=NOC)c1ccccc1COc1ccccc1C [Example 12] | criterion met
CCS(=O)(=O)N(C)C(=O)N(C)C(=O)C(=NOC)c1ccccc1COc1ccccc1C [Example 35] | criterion met
CON=C(C(=O)N(C)SC(F)(Cl)Cl)c1ccccc1Oc1ncnc(Oc2ccccc2)c1F [Example 88] | criterion met
CON=Cc1cccc(Oc2ncnc(Oc3ccccc3C(=NOC)C(=O)N(C)SC(F)(Cl)Cl)c2F)c1 [Example 100] | criterion not met

# ---- query molecule ----
Determine whether this molecule shows logP lower than 5 (ties excluded): CON=C(C(=O)N(C)C(=O)N(C)SC(F)(F)F)c1ccccc1COc1ccccc1C [Example 59]
criterion met

----------
Assay: logP determination by HPLC (EEC-Directive 79/831 Annex V. A8)
Assay type: physicochemical
Settings: gradient method, acetonitrile/0.1% aqueous phosphoric acid
The following compounds are listed with their measured logP values.
Returns: the value as a bare number; no unit string appended.

CON=C(C(=O)N(C)SC(F)(Cl)Cl)c1ccccc1Oc1ncnc(Oc2ccc(Cl)c(Cl)c2)c1F [Example 115] | 5.58
CCc1cc(C)cc(Oc2ncnc(Oc3ccccc3C(=NOC)C(=O)N(C)SC(F)(Cl)Cl)c2F)c1 [Example 137] | 5.76
CON=C(C(=O)N(C)SC(F)(Cl)Cl)c1ccccc1Oc1ncnc(Oc2ccccc2OC(F)(F)F)c1F [Example 93] | 5.2
CON=C(C(=O)N(C)SC(F)(Cl)Cl)c1ccccc1Oc1ncnc(Oc2cccc(Cl)c2)c1F [Example 117] | 5.14

Reported logP ( CCOCN(C)C(=O)C(=NOC)c1ccccc1COc1ccccc1C [Example 19] ) = 4.02

Given item CON=C(C(=O)N(C)SC(F)(F)F)c1ccccc1COc1cc(C)ccc1C [Example 68] , the value recorded as its logP is 5.25

Query CON=C(C(=O)N(C)C(=O)C(=O)OC)c1ccccc1COc1ccccc1C [Example 26] yields logP of 3.96

GET /value?item= CON=C(C(=O)N(C)SC(F)(Cl)Cl)c1ccccc1Oc1ncnc(Oc2cccc(C(C)(C)C)c2)c1F [Example 132] &field=logP returns 5.84

----------
Assay: logP determination by HPLC (EEC-Directive 79/831 Annex V. A8)
Assay type: physicochemical
Conditions: gradient method, acetonitrile/0.1% aqueous phosphoric acid
Mark class 0 for logP values under 5, and class 1 for everything at or above.

# count of solved cases: 5
CON=C(C(=O)N(C)SC(F)(Cl)Cl)c1ccccc1Oc1ncnc(Oc2cc(C)ccc2C)c1F | class 1
CCCCN(CCCC)SN(C)C(=O)C(=NOC)c1ccccc1COc1ccccc1C | class 1
CON=C(C(=O)N(C)C(=O)N(C)C)c1ccccc1COc1ccccc1C | class 0
CON=C(C(=O)N(C)SC(=O)OC)c1ccccc1Oc1ccccc1 | class 0
CON=C(C(=O)N(C)Sc1ccc(C)cc1)c1ccccc1COc1ccccc1C | class 1

Threshold query (logP >= 5) on `CON=C(C(=O)N(C)SC(F)(Cl)Cl)c1ccccc1Oc1ncnc(Oc2ccccc2OC)c1F`
class 0

Reported logP at or above 5? `CON=C(C(=O)N(C)C(=O)N(SC(F)(Cl)Cl)c1ccc(Cl)cc1)c1ccccc1COc1ccccc1C`
class 1

Could you please find out whether `CON=C(C(=O)N(SC(F)(F)F)C1CC1)c1ccccc1COc1ccccc1C` has logP that meets 5 or exceeds it?
class 1

----------
Experiment: logP determination by HPLC (EEC-Directive 79/831 Annex V. A8)
Format: physicochemical
Conditions: gradient method, acetonitrile/0.1% aqueous phosphoric acid
Binary call on logP with cut-off 5: strictly below means class 1, and equality or higher means class 0.

CON=C(C(C)=NOCc1ccccc1C(=NOC)C(=O)N(C)SC(F)(Cl)Cl)c1ccccc1 [Example 143] | class 0

# ---- query compound ----
Strictly below 5 in logP? C=CCc1ccccc1Oc1ncnc(Oc2ccccc2C(=NOC)C(=O)N(C)SC(F)(Cl)Cl)c1F [Example 122]
class 0

----------
Measured logP accompanies every entry in the list below.
Test: logP determination by HPLC (EEC-Directive 79/831 Annex V. A8)
Type: physicochemical
Details: gradient method, acetonitrile/0.1% aqueous phosphoric acid
Could you keep your reply to the number by itself?

Recorded logP, per entry:
CON=C(C(=O)N(C)SC(F)(Cl)Cl)c1ccccc1CON=C(C)c1ccc(OC)c(OC)c1 | 4.7
CCSN(C)C(=O)C(=NOC)c1ccccc1CON=C(C)c1cccc(C(F)(F)F)c1 | 5.02
CON=C(C(=O)N(C)SC(F)(Cl)Cl)c1ccccc1COc1cc(C)ccc1C | 5.68
CON=Cc1ccccc1Oc1ncnc(Oc2ccccc2C(=NOC)C(=O)N(C)SC(F)(Cl)Cl)c1F | 5.03
CON=C(C(=O)N(C)SC(F)(Cl)Cl)c1ccccc1CON=C(C)c1cccc(F)c1 | 5.36
CON=C(C(=O)N(C)SC(F)(Cl)Cl)c1ccccc1Oc1ncnc(Oc2ccccc2C#N)c1F | 4.28
CON=C(C(=O)N(C)SC(F)(Cl)Cl)c1ccccc1Oc1ncnc(Oc2cccc(F)c2)c1F | 4.76

Turning now to a further record.
Input `CON=C(C(=O)N(C)SC(=O)OC)c1ccccc1CON=C(C)c1cccc(C(F)(F)F)c1` . Output logP: 4.75

----------
Test: logP determination by HPLC (EEC-Directive 79/831 Annex V. A8)
Type: physicochemical
Settings: gradient method, acetonitrile/0.1% aqueous phosphoric acid
Readout Name: logP
Output spec: single numeric token, no unit.

Examples with their reported logP follow.
CON=C(C(=O)N(C)SC(F)(Cl)Cl)c1ccccc1Oc1ncnc(Oc2cccc3c2OC(C)(C)C3)c1F [Example 96] | 5.27
CON=C(C(=O)N(C)SC(F)(F)F)c1ccccc1CON=C(C)c1cccc(Cl)c1 [Example 78] | 5.39
CON=C(C(=O)N(C)Sc1cccc(C(F)(F)F)c1)c1ccccc1COc1ccccc1C [Example 22] | 5.5

response.value for CON=C(C(=O)N(C)SC)c1ccccc1COc1ccccc1C [Example 54] (field: logP) = 4.22

CON=C(C(=O)N(C)SC(F)(Cl)Cl)c1ccccc1Oc1ncnc(Oc2cccc(Cl)c2C)c1F [Example 86] yielded logP of 5.59

Form: compound = CON=C(C(=O)N(C)SC(F)(Cl)Cl)c1ccccc1Oc1ncnc(Oc2ccccc2C(C)(C)C)c1F [Example 111] ; logP = 5.73

# logP (compound: CON=C(C(=O)N(C)SC(F)(F)F)c1ccccc1CON=C(C)c1ccc(OC)c(OC)c1 [Example 80] ) is 4.36

Entry CON=C(C(=O)N(C)SC(F)(Cl)Cl)c1ccccc1Oc1ncnc(Oc2ccccc2OC(F)F)c1F [Example 94] — recorded logP = 4.7

----------
Assay: logP determination by HPLC (EEC-Directive 79/831 Annex V. A8)
Type: physicochemical
Conditions: gradient method, acetonitrile/0.1% aqueous phosphoric acid
1 means recorded logP is 5 or above; -1 means it is below 5.

CON=C(C(=O)N(SC(F)(Cl)Cl)C1CC1)c1ccccc1COc1ccccc1C | 1
CON=C(C(=O)N(C)SC(F)(F)F)c1ccccc1COc1cc(F)ccc1F | -1
CON=C(C(=O)N(C)SC(F)(Cl)Cl)c1ccccc1Oc1ncnc(Oc2cccc(OC)c2)c1F | -1
CON=C(C(=O)N(C)SC(F)(Cl)Cl)c1ccccc1CON=C(C)c1cccc(Cl)c1 | 1

Does the reported logP for `CCSN(C)C(=O)C(=NOC)c1ccccc1COc1ccccc1C` fall at or above the 5 mark?
-1

----------
Assay: logP determination by HPLC (EEC-Directive 79/831 Annex V. A8)
Type: physicochemical
Settings: gradient method, acetonitrile/0.1% aqueous phosphoric acid
logP values, listed per item
// return just the number, without any unit appended

Just so you know, measured logP for `CCOC(=O)N(C)C(=O)C(=NOC)c1ccccc1CON=C(C)c1cccc(C(F)(F)F)c1` came out at 4.91

Measured logP of `CON=C(C(=O)N(C)C#N)c1ccccc1COc1ccccc1C` : 3.67

Item: `CON=C(C(=O)N(SC(F)(Cl)Cl)SC(F)(Cl)Cl)c1ccccc1COc1ccccc1C` | logP: 6.61

The recorded logP for `CON=C(C(=O)N(C)C(=O)OC)c1ccccc1COc1ccccc1C` is 4.11

----------
In this section we review reported chromatographic logP values for a set of compounds.
Test: logP determination by HPLC (EEC-Directive 79/831 Annex V. A8)
Format: physicochemical
Settings: gradient method, acetonitrile/0.1% aqueous phosphoric acid
Would you mind answering with just the numeric figure?

Recorded results for 2 compounds are shown here.
CON=C(C(=O)N(C)SC(F)(Cl)Cl)c1ccccc1Oc1ncnc(Oc2ccccc2Br)c1F [Example 2] | 5.1
CON=C(C(=O)N(C)SC(=O)OC)c1ccccc1COc1ccccc1C [Example 1] | 4.25

Next compound, please.
chromatographic logP in this record for CON=C(C(=O)N(C)SN(C)C(=O)C(=NOC)c1ccccc1COc1ccccc1C)c1ccccc1COc1ccccc1C [Example 45] : 6.1
